Target: potassium channels (Sus scrofa)
Assay: Functional potassium channel opening activity in isolated Landrace pig bladder strips (field-stimulated twitch)
Conditions: negative logarithm of ED50
property.name: Landrace Pig Bladder pD2

CC1=C(S(C)(=O)=O)C(c2ccc(C)c([N+](=O)[O-])c2)C2=C(CCCC2=O)N1 (stereo not shown) = 4.4
O=C1CCC2=C1C(c1ccc(Br)c(Br)c1)C1=C(CCS1(=O)=O)N2 (stereo not shown) = 6.6
O=C1CCC2=C1C(c1ccc(Cl)c([N+](=O)[O-])c1)C1=C(CCCS1(=O)=O)N2 (stereo not shown) = 6.2

1. O=C1CCC2=C1C(c1ccc([N+](=O)[O-])s1)C1=C(CCS1(=O)=O)N2 (stereo not shown)
2. O=[N+]([O-])c1cccc(C2C3=C(CCS3(=O)=O)NC3=C2S(=O)(=O)CC3)c1
Problem: // max by Landrace Pig Bladder pD2 over [ 1 , 2 ] Returns: label corresponding to the selected item.
Solution: 1
(1: 6.3, 2: 4.4)

----------
Molecular target: UniProtKB F1SR11
Assay: Functional potassium channel opening activity in isolated Landrace pig bladder strips (field-stimulated twitch)
Conditions: ED50 for P1075 divided by ED50 for the test agonist, averaged over tissues
property.name: Landrace Pig Bladder Index

# annotated cases, reported Landrace Pig Bladder Index shown
N#Cc1cccc(C2C3=C(CCCC3=O)NC3=C2S(=O)(=O)CC3)c1 (centres unmarked) [Example 30] = 0.018
CC(=O)C1=C(C)NC2=C(C1c1ccc(F)c(Br)c1)S(=O)(=O)CCC2 (centres unmarked) [Example 66] = 0.12
O=C1CCCC2=C1[C@@H](c1ccc(F)c(Br)c1)C1=C(CCS1(=O)=O)N2 [Example 83] = 0.57

I. O=C1CCCC2=C1C(c1ccc(Cl)c(Cl)c1)C1=C(CCS1(=O)=O)N2 (single isomer, unassigned; (+)) [Example 95]
II. CC1=C(S(C)(=O)=O)C(c2cccc([N+](=O)[O-])c2)C2=C(CCCC2=O)N1 (centres unmarked) [Example 26]
III. CC1=C(S(C)(=O)=O)C(c2ccc(C)c([N+](=O)[O-])c2)C2=C(CCCC2=O)N1 (centres unmarked) [Example 23]
IV. O=C1CCCC2=C1C(c1ccc3nonc3c1)C1=C(CCS1(=O)=O)N2 (single isomer, unassigned; (+)) [Example 97]
V. O=C1CCC2=C1C(c1cccc([N+](=O)[O-])c1)C1=C(CCS1(=O)=O)N2 (centres unmarked) [Example 58]
Problem: Sort ascending by Landrace Pig Bladder Index. Labels, requested order.
Solution: III, II, V, IV, I

----------
Molecular target: UniProtKB F1SR11
Assay: Functional potassium channel opening activity in isolated Landrace pig bladder strips (field-stimulated twitch)
Details: ED50 for P1075 divided by ED50 for the test agonist, averaged over tissues
property.name: Landrace Pig Bladder Index

I. O=S1(=O)CCC2=C1C(c1ccc3nonc3c1)C1=C(CCS1(=O)=O)N2
II. O=S1(=O)CCC2=C1C(c1ccc(F)c(Br)c1)C=C(C(F)(F)F)N2 (stereo not drawn) [Example 112]
III. O=C1CCC2=C1C(c1ccc([N+](=O)[O-])s1)C1=C(CCS1(=O)=O)N2 (stereo not drawn)
IV. O=S1(=O)CCC2=C1C(c1ccc(F)c(C(F)(F)F)c1)C1=C(CCS1(=O)=O)N2
Problem: Ascending by Landrace Pig Bladder Index, please. Labels, requested order.
Solution: I, II, IV, III

A. O=C1CCCC2=C1C(c1ccc(Cl)c(C(F)(F)F)c1)C1=C(CCS1(=O)=O)N2 (single isomer, unassigned; (-))
B. O=C1CCC2=C1C(c1ccc(Cl)c(Cl)c1)C1=C(CCS1(=O)=O)N2 (stereo not drawn) [Example 60]
Problem: From the items above, decide which of A and B has the lower Landrace Pig Bladder Index reading. Returns: label corresponding to the selected item.
Solution: A
